Kindly state Dmax for each of the entries shown.
# ASSAYED TARGET: IKZF2 (Homo sapiens, UniProt Q96SW2+Q9UKS7)
# Construct: CRISPR/Cas9—mediated insertion of the HiBiT peptide tag (Promega™) to the N-terminus of the IKZF2 gene locus; endogenous in cells; host or cells: MOLT4 cells, with CRISPR/Cas9 knock-in of HiBiT at the endogenous IKZF2 locus
# Sequence (Q9UKS7 whole entry): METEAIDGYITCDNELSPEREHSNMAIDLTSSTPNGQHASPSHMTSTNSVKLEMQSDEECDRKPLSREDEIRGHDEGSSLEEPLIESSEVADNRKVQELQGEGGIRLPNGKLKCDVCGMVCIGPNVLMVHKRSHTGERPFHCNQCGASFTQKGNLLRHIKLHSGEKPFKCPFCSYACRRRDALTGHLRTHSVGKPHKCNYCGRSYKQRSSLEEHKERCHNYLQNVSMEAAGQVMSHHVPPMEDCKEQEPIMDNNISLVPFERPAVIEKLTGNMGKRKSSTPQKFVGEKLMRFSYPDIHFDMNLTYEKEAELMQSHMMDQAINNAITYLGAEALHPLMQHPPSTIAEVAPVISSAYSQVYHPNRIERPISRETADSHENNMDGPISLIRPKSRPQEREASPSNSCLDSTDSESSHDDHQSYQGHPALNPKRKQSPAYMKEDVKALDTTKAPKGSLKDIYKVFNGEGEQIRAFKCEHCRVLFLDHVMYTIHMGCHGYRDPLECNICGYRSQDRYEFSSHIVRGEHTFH
# Sequence (Q96SW2 whole entry): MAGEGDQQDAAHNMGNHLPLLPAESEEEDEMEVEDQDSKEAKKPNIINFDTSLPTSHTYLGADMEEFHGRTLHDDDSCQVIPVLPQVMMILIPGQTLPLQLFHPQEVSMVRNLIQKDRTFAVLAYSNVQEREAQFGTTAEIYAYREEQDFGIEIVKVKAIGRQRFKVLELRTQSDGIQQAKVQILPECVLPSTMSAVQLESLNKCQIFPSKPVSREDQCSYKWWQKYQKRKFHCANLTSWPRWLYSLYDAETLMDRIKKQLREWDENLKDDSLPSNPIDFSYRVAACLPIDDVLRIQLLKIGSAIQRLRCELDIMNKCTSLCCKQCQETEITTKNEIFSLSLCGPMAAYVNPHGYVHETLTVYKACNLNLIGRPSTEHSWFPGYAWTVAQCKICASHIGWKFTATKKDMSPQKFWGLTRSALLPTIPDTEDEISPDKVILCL
# Sequence (Q16531 whole entry partner): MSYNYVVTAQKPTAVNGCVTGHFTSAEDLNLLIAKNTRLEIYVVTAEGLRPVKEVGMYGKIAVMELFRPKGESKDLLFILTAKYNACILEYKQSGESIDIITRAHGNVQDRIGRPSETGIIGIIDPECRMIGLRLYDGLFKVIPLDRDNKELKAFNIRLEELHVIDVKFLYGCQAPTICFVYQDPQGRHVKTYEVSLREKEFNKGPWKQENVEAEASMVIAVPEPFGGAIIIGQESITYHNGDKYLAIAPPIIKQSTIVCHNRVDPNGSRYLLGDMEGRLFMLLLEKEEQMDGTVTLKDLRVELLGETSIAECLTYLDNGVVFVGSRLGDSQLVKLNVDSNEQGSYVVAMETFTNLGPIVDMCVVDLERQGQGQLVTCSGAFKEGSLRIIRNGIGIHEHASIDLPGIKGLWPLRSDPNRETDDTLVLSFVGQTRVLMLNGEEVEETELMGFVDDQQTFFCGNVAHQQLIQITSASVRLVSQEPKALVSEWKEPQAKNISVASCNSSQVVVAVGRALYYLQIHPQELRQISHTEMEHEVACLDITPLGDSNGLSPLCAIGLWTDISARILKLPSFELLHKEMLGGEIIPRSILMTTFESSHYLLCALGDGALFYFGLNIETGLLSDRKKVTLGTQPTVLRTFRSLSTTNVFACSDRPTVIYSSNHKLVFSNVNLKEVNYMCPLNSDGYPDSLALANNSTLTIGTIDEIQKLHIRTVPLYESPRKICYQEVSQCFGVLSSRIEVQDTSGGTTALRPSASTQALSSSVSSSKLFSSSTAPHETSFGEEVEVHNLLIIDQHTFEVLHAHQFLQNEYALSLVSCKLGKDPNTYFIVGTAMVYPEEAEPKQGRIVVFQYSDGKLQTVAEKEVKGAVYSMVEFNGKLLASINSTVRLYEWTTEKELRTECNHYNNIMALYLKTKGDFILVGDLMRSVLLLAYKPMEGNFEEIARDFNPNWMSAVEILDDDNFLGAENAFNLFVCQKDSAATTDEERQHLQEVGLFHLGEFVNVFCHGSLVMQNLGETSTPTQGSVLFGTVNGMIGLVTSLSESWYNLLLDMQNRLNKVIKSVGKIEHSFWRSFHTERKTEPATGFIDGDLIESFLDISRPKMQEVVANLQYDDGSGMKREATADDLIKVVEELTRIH
# PROTOCOL DETAILS: HiBit-IKZF2 assay (HiBiT-Helios degradation in MOLT4 cells)
# Type: cell-based
# COND: MOLT-4, extent of degradation from highest to lowest concentration, 10 μM to 0.00026 μM, read-out: Dmax

Dmax in this record for O=C1CCC(N2Cc3cc(C4(O)CCN(Cc5ccccc5OCc5ccccc5)CC4)ccc3C2=O)C(=O)N1 (stereo not drawn) : 50 to 70%

Dmax in this record for O=C1CCC(N2Cc3cc(C4(O)CCN(Cc5ccc(F)cc5)CC4)ccc3C2=O)C(=O)N1 (stereo not drawn) : > 70%

Dmax in this record for O=C1CCC(N2Cc3cc(C4CCN(Cc5cccc(N6CCCCS6(=O)=O)c5)CC4)ccc3C2=O)C(=O)N1 (stereo not drawn) : 30 to 50%

Dmax in this record for O=C1CCC(N2Cc3cc(C4CCN(Cc5cccnc5Oc5ccccc5)CC4)ccc3C2=O)C(=O)N1 (stereo not drawn) : 30 to 50%

Dmax in this record for O=C1CCC(N2Cc3cc(C4(O)CCN(Cc5cccc(OC(F)F)c5)CC4)ccc3C2=O)C(=O)N1 (stereo not drawn) : > 70%

Dmax in this record for O=C1CCC(N2Cc3cc(C4CCN(Cc5cccc(S(=O)(=O)N6CC7(COC7)C6)c5)CC4)ccc3C2=O)C(=O)N1 (stereo not drawn) : 50 to 70%

Dmax in this record for O=C1CCC(N2Cc3cc(C4CCN(Cc5nccc(Nc6ccccn6)n5)CC4)ccc3C2=O)C(=O)N1 (stereo not drawn) : 50 to 70%

Dmax in this record for O=C1CCC(N2Cc3cc(C4CCN(Cc5cccc(S(=O)(=O)N6CCOc7ccccc76)c5)CC4)ccc3C2=O)C(=O)N1 (stereo not drawn) : 50 to 70%

Dmax in this record for CP(C)(=O)c1cccc(Nc2cccc(CN3CCC(c4ccc5c(c4)CN(C4CCC(=O)NC4=O)C5=O)CC3)c2)c1 (stereo not drawn) : 50 to 70%

Dmax in this record for O=C1CCC(N2Cc3cc(C4CCN(Cc5cccc(Nc6ncc(Cl)cn6)c5)CC4)ccc3C2=O)C(=O)N1 (stereo not drawn) : 50 to 70%

Dmax in this record for O=C1CCC(N2Cc3cc(C4CCN(Cc5cccc(N6Cc7ccccc7C6=O)c5)CC4)ccc3C2=O)C(=O)N1 (stereo not drawn) : 50 to 70%

Dmax in this record for O=C1CCC(N2Cc3cc(C4CCN(Cc5ccc6c(c5)C(=O)N(c5ccccn5)CCC6)CC4)ccc3C2=O)C(=O)N1 (stereo not drawn) : 50 to 70%

Dmax in this record for O=C1CCC(N2Cc3cc(C4CCN(Cc5nccc(Nc6ccccc6)c5F)CC4)ccc3C2=O)C(=O)N1 (stereo not drawn) : 50 to 70%

Dmax in this record for N#Cc1ccc(N2Cc3ccc(CN4CCC(c5ccc6c(c5)CN(C5CCC(=O)NC5=O)C6=O)CC4)cc3C2=O)c(F)c1 (stereo not drawn) : 50 to 70%

Dmax in this record for O=C1CCC(N2Cc3cc(C4CCN(Cc5ccnc(Nc6ccccc6)c5F)CC4)ccc3C2=O)C(=O)N1 (stereo not drawn) : 50 to 70%

Dmax in this record for O=C1CCC(N2Cc3cc(C4(O)CCN(Cc5ccc6ccccc6c5)CC4)ccc3C2=O)C(=O)N1 (stereo not drawn) : > 70%

Dmax in this record for Cc1ccc(CN2CCC(O)(c3ccc4c(c3)CN(C3CCC(=O)NC3=O)C4=O)CC2)cc1 (stereo not drawn) : > 70%

Dmax in this record for O=C1CCC(N2Cc3cc(C4CCN(Cc5ccc(C(=O)Nc6ccccc6)nc5)CC4)ccc3C2=O)C(=O)N1 (stereo not drawn) : 50 to 70%

Dmax in this record for O=C1CCC(N2Cc3cc(C4CCN(Cc5ccc6c(c5)C(=O)N(c5ccccc5)C6)CC4)ccc3C2=O)C(=O)N1 (stereo not drawn) : > 70%

Dmax in this record for O=C1CCC(N2Cc3cc(C4CCN(Cc5ccccc5C(=O)Nc5ccccc5)CC4)ccc3C2=O)C(=O)N1 (stereo not drawn) : 50 to 70%

Dmax in this record for O=C1CCC(N2Cc3cc(C4(O)CCN(Cc5cccc(-c6ccccc6)c5)CC4)ccc3C2=O)C(=O)N1 (stereo not drawn) : > 70%
